Each entry below carries its reported TGI.
# System: MOLT-4 leukemia
# TEST METHOD NOTES: NCI tumour cell line growth inhibition, 48 h
PROPERTY MEASURED: TGI (µM)

{"MOLECULE": "CC/C=C/C/C=C/C/C=C/C/C=C/C/C=C/C/C=C/CCC(=O)Nc1ccn([C@@H]2O[C@H](CO)[C@@H](O)C2(F)F)c(=O)n1", "ASSAY SYSTEM": "MOLT-4 leukemia", "INEQUALITY SIGN": "=", "MEASURED RESULT": 3.55}
{"MOLECULE": "CC1=C(C(=O)NNS(=O)(=O)c2ccc(C)cc2)CC(C(=O)NNS(=O)(=O)c2ccc(C)cc2)=C(C)N1", "ASSAY SYSTEM": "MOLT-4 leukemia", "INEQUALITY SIGN": ">", "MEASURED RESULT": 100}
{"MOLECULE": "Cc1cc2c(nn1)-c1ccccc1C2=O", "ASSAY SYSTEM": "MOLT-4 leukemia", "INEQUALITY SIGN": ">", "MEASURED RESULT": 10}
{"MOLECULE": "COc1cc(C=C2C(=O)NC(=S)NC2=O)cc(OC)c1OC", "ASSAY SYSTEM": "MOLT-4 leukemia", "INEQUALITY SIGN": ">", "MEASURED RESULT": 100}
{"MOLECULE": "COc1ccc(N=C2C(=S)N(c3ccc(OC)cc3)/C(=N/S(=O)(=O)c3ccccc3)N2c2ccccc2)cc1", "ASSAY SYSTEM": "MOLT-4 leukemia", "INEQUALITY SIGN": ">", "MEASURED RESULT": 100}
{"MOLECULE": "COC(=O)c1cccc2cccc(C(=O)Nc3ccc(Cl)cc3)c12", "ASSAY SYSTEM": "MOLT-4 leukemia", "INEQUALITY SIGN": ">", "MEASURED RESULT": 100}
{"MOLECULE": "COc1ccc(/C=C(/c2ccccc2)[N+](=O)[O-])cc1", "ASSAY SYSTEM": "MOLT-4 leukemia", "INEQUALITY SIGN": "=", "MEASURED RESULT": 6.28}
{"MOLECULE": "[F][Sn]([F])([c]1ccccc1)[c]1ccccc1", "ASSAY SYSTEM": "MOLT-4 leukemia", "INEQUALITY SIGN": "=", "MEASURED RESULT": 5.22}
{"MOLECULE": "OC1(c2ccc(Cl)cc2)c2ccc(CN3CCCC3)cc2C2=NCCN21 (stereo unspecified)", "ASSAY SYSTEM": "MOLT-4 leukemia", "INEQUALITY SIGN": "=", "MEASURED RESULT": 41.9}
{"MOLECULE": "Cc1c2ccncc2c(C)c2c1[nH]c1ccccc12", "ASSAY SYSTEM": "MOLT-4 leukemia", "INEQUALITY SIGN": "=", "MEASURED RESULT": 1.75}
{"MOLECULE": "CSC(SC)=C1C(=O)N(c2ccccc2)N=C1C", "ASSAY SYSTEM": "MOLT-4 leukemia", "INEQUALITY SIGN": "=", "MEASURED RESULT": 52.9}
{"MOLECULE": "CC12CC1C(c1cccc([N+](=O)[O-])c1)(c1cccc([N+](=O)[O-])c1)N=N2 (stereo unspecified)", "ASSAY SYSTEM": "MOLT-4 leukemia", "INEQUALITY SIGN": ">", "MEASURED RESULT": 100}
{"MOLECULE": "CCOc1ccccc1NC(=O)C(C#N)C1=C(Cl)C(=O)c2ccccc2C1=O (stereo unspecified)", "ASSAY SYSTEM": "MOLT-4 leukemia", "INEQUALITY SIGN": "=", "MEASURED RESULT": 3.32}
{"MOLECULE": "COc1ccccc1N1CCN(CCCNC(=O)c2cc(Cl)c(N)c(Cl)c2)CC1", "ASSAY SYSTEM": "MOLT-4 leukemia", "INEQUALITY SIGN": "=", "MEASURED RESULT": 92.6}
{"MOLECULE": "CC(C)(C)OC(=O)n1c(-c2ccccc2F)cc(=O)c2cc3c(cc21)OCO3", "ASSAY SYSTEM": "MOLT-4 leukemia", "INEQUALITY SIGN": "=", "MEASURED RESULT": 10}
{"MOLECULE": "COc1ccc(-c2csc(NC(=O)CSc3nc(C)c(-c4ccccc4)n3Nc3ccccc3)n2)cc1", "ASSAY SYSTEM": "MOLT-4 leukemia", "INEQUALITY SIGN": ">", "MEASURED RESULT": 100}
{"MOLECULE": "Clc1ccc(Cl)c(SCCCN2CCNCC2)c1", "ASSAY SYSTEM": "MOLT-4 leukemia", "INEQUALITY SIGN": "=", "MEASURED RESULT": 40.6}
{"MOLECULE": "O=C(CCCN1CCC2(CC1)C(=NC1CCCCC1)NC(=O)N2c1ccccc1)c1ccc(F)cc1", "ASSAY SYSTEM": "MOLT-4 leukemia", "INEQUALITY SIGN": "=", "MEASURED RESULT": 57.2}
{"MOLECULE": "C[C@H]1CCC/C=C/[C@@H]2C[C@H](O)C[C@H]2[C@H](O)[C@@H](SCC(O)CO)CC(=O)O1 (stereo partly specified)", "ASSAY SYSTEM": "MOLT-4 leukemia", "INEQUALITY SIGN": "=", "MEASURED RESULT": 84.3}
{"MOLECULE": "O=C(Nc1ccc(-n2cc(-c3ccncc3)c(-c3ccc(O)c(Cl)c3)n2)cc1)Nc1cccc(Cl)c1Cl", "ASSAY SYSTEM": "MOLT-4 leukemia", "INEQUALITY SIGN": ">", "MEASURED RESULT": 32.5}
{"MOLECULE": "CC(O)CC(O)(C(F)(F)F)C(F)(F)F (stereo unspecified)", "ASSAY SYSTEM": "MOLT-4 leukemia", "INEQUALITY SIGN": ">", "MEASURED RESULT": 10}
